Experiment notes: endothelial E-selectin expression blockers – imaging, HUVEC, immunofluorescence, MLSMR starter and 10KST1 sets, primary screen (AID 487);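 also: 100% = median nuclei count of all wells on the same plate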
Settings: HUVEC TNFalpha-induced E-selectin immunofluorescence imaging, at 2 µM; measured here: cell number, toxicity
Assay endpoint: nuclei count (%)
Answers are plain numbers, in %.

Consider the following illustrative entries.
[[record]]
compound = "COc1ccc(NC(=O)CCCN2C(=O)C3C4C=CC(C4)C3C2=O)c(OC)c1 (stereo unspecified)"
unit_tag = "%"
measured = 62.2

[[record]]
compound = "O=C(COc1nnnc2ccccc12)N1CCCc2ccccc21"
unit_tag = "%"
measured = 130

[[record]]
compound = "COc1cc(NC(=O)c2ccc(COCC(F)(F)F)o2)cc(OC)c1OC"
unit_tag = "%"
measured = 118

[[record]]
compound = "CC1(C)Cc2noc(N)c2C(C)(C)N1O"
unit_tag = "%"
measured = 110

[[record]]
compound = "CCOc1ccc(-n2c(C)nc3c(cnn3-c3ccc(Cl)cc3)c2=O)cc1"
unit_tag = "%"
measured = 109


Provide nuclei count values for the following items, in order.
1. O=C(Nc1cccc(C(F)(F)F)c1)c1cccnc1N1CCCC1
2. O=C1CC(c2ccco2)CC(O)=C1C=NCCN1CCNCC1 (stereo unspecified)

output:
118
122

Provide nuclei count values for the following items, in order.
1. Cc1cc(C(=O)CSCc2nnc3n(CCC(C)C)c(=O)c4ccccc4n23)c(C)n1C
2. COc1ccc(-c2noc(CCC(=O)NCCCN3CCC(Cc4ccccc4)CC3)n2)cc1
3. C=C(c1ccc(O)cc1)c1ccc(O)cc1
4. CN1C(=O)NC(NC(=O)C2CCCCC2)(C(F)(F)F)C1=O (stereo unspecified)

output:
1: 88.8; 2: 108; 3: 205; 4: 99.5

====

Experiment notes: reduction of polyQ htt aggregates in cells – imaging, exon1htt(103Q)mCFP cells, high-content imaging, primary screen (AID 483);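 also: compound exposure lasted 3 days before fixation; percent of the per-plate median nuclei count of sample wells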
Settings: exon1htt(103Q)mCFP cell line, aggregate imaging, at 2 µM; measured here: cell count, toxicity
Assay endpoint: nuclei count (%)
Answers are plain numbers, in %.

Consider the following illustrative entries.
[[record]]
compound = "Cc1ccccc1NC(=O)C1Cc2ccccc2C(=O)O1 (stereo not drawn)"
assay_endpoint = "nuclei count"
measured = 76.3

[[record]]
compound = "COc1ccc(Cl)cc1NC(=O)c1oc(C)nc1C"
assay_endpoint = "nuclei count"
measured = 97.4

[[record]]
compound = "CCOc1ccc(-n2cc(C(=O)Nc3cccc(C)n3)c3cc(OC)c(OC)cc3c2=O)cc1"
assay_endpoint = "nuclei count"
measured = 82.4

[[record]]
compound = "CSc1nnc(-c2cnccn2)n1C"
assay_endpoint = "nuclei count"
measured = 121

[[record]]
compound = "N/C(Cn1nnc(-c2ccccc2)n1)=N\\O"
assay_endpoint = "nuclei count"
measured = 108

[[record]]
compound = "O=c1oc2ccccc2c(N2CCCCC2)c1CN1CCCCC1"
assay_endpoint = "nuclei count"
measured = 108


Provide nuclei count values for the following items, in order.
1. CC(C(=O)N1c2ccc(F)cc2CCC1C)N1C(=O)c2ccccc2C1=O (stereo not drawn)
2. Cn1cc(CC(=O)Nc2cccc(C#N)c2)c2ccccc21
3. Cc1cnc(C(=O)Nc2ccc(-n3cnnn3)cc2)cn1
4. CC1CN(S(=O)(=O)c2cccc(C(=O)OCc3cc(=O)oc4cc(O)ccc34)c2)CC(C)O1 (stereo not drawn)

output:
1: 118; 2: 83.5; 3: 95.2; 4: 100

Provide nuclei count values for the following items, in order.
1. CCc1nnc(NC(=O)CSc2nc3ccccc3s2)s1
2. COCC(=O)Nc1sc2c(c1C(=O)OC)CCC(C)C2 (stereo not drawn)
3. O=c1[nH]c2c(s1)C(c1ccco1)C1C3CCC(C3)C1S2 (stereo not drawn)
4. CCCN(CCC)C(=O)CSc1nc2ccccc2c(=O)n1C1CCCC1
5. CCOc1ccc2nc(NC(=O)C(NS(=O)(=O)c3cccs3)C(C)C)sc2c1 (stereo not drawn)
6. Cc1cccc(-n2ncc(C#N)c2N)c1
7. CCCCc1ccc(NC(=O)COCC)cc1
8. COc1cccc(OC)c1C(=O)N1CCOCC1

output:
1: 100; 2: 94.2; 3: 89.5; 4: 93.4; 5: 105; 6: 97; 7: 110; 8: 103

Provide nuclei count values for the following items, in order.
1. O=C(CSC1=NC(=O)C(Cc2ccccc2)C(=O)N1)NC1CCCCC1 (stereo not drawn)
2. Cc1nc2sc3c(c2c(=O)o1)CCC3
3. CN1CCCC(OC(=O)COc2ccc(Br)cc2)C1 (stereo not drawn)

output:
1: 104; 2: 108; 3: 97

Provide nuclei count values for the following items, in order.
1. CCN(CC)C(=O)C1=C(C)NC(=O)NC1c1c(F)cccc1Cl (stereo not drawn)
2. Cc1ccc(SCCC(=O)N(C)C)cc1
3. C=C(c1ccc(O)cc1)c1ccc(O)cc1
4. Cc1ccc(NC(=O)CSc2nnc(CCCCCNC(=O)OC(C)(C)C)o2)c(C)c1
5. O=C(CCn1nc(-c2ccc(Cl)cc2)ccc1=O)N1CCN(c2ccccn2)CC1
6. CCOC(=O)/C=C(\C)Sc1cc(=O)oc2ccccc12
7. CC1CCN(S(=O)(=O)c2ccc(NC(=O)CSc3nnnn3C)cc2)CC1

output:
1: 116; 2: 89.8; 3: 123; 4: 94.7; 5: 100; 6: 93.3; 7: 107

Hey, just so you know, these numbers are from PubChem BioAssay.
